Values compiled from patent US9809532B2.

# protocol_details: Oral pharmacokinetics
# Format: in vivo
# test_settings: oral, plasma; read-out: AUC0-t
quantity_measured: AUC0-t (ng·h/mL)
Give just the numeric value; ng·h/mL need not be written.

Requested read-out: AUC0-t. Entry: CCOc1cccc(OCCN(C)C)c1C(=O)Nc1ccc(Cl)c(C(F)(F)F)c1 328

----------
# protocol_details: Pharmacokinetics and BBB penetration after i.p. and i.v. administration (LC-MS/MS)
# Assay type: in vivo, BALB/c mice
# test_settings: BALB/c, mouse, brain/plasma, ip, 20 mg/kg, IP, read-out: AUC0-∞ ratio brain/plasma
quantity_measured: Kp
The reply should be a number, written without any unit.

Requested read-out: Kp. Entry: CCOc1cccc(OCCN(C)C)c1C(=O)Nc1ccc(Cl)c(C(F)(F)F)c1 8.1

----------
# target_under_test: human p300 (Homo sapiens, UniProt Q09472)
# Sequence (Q09472 whole entry): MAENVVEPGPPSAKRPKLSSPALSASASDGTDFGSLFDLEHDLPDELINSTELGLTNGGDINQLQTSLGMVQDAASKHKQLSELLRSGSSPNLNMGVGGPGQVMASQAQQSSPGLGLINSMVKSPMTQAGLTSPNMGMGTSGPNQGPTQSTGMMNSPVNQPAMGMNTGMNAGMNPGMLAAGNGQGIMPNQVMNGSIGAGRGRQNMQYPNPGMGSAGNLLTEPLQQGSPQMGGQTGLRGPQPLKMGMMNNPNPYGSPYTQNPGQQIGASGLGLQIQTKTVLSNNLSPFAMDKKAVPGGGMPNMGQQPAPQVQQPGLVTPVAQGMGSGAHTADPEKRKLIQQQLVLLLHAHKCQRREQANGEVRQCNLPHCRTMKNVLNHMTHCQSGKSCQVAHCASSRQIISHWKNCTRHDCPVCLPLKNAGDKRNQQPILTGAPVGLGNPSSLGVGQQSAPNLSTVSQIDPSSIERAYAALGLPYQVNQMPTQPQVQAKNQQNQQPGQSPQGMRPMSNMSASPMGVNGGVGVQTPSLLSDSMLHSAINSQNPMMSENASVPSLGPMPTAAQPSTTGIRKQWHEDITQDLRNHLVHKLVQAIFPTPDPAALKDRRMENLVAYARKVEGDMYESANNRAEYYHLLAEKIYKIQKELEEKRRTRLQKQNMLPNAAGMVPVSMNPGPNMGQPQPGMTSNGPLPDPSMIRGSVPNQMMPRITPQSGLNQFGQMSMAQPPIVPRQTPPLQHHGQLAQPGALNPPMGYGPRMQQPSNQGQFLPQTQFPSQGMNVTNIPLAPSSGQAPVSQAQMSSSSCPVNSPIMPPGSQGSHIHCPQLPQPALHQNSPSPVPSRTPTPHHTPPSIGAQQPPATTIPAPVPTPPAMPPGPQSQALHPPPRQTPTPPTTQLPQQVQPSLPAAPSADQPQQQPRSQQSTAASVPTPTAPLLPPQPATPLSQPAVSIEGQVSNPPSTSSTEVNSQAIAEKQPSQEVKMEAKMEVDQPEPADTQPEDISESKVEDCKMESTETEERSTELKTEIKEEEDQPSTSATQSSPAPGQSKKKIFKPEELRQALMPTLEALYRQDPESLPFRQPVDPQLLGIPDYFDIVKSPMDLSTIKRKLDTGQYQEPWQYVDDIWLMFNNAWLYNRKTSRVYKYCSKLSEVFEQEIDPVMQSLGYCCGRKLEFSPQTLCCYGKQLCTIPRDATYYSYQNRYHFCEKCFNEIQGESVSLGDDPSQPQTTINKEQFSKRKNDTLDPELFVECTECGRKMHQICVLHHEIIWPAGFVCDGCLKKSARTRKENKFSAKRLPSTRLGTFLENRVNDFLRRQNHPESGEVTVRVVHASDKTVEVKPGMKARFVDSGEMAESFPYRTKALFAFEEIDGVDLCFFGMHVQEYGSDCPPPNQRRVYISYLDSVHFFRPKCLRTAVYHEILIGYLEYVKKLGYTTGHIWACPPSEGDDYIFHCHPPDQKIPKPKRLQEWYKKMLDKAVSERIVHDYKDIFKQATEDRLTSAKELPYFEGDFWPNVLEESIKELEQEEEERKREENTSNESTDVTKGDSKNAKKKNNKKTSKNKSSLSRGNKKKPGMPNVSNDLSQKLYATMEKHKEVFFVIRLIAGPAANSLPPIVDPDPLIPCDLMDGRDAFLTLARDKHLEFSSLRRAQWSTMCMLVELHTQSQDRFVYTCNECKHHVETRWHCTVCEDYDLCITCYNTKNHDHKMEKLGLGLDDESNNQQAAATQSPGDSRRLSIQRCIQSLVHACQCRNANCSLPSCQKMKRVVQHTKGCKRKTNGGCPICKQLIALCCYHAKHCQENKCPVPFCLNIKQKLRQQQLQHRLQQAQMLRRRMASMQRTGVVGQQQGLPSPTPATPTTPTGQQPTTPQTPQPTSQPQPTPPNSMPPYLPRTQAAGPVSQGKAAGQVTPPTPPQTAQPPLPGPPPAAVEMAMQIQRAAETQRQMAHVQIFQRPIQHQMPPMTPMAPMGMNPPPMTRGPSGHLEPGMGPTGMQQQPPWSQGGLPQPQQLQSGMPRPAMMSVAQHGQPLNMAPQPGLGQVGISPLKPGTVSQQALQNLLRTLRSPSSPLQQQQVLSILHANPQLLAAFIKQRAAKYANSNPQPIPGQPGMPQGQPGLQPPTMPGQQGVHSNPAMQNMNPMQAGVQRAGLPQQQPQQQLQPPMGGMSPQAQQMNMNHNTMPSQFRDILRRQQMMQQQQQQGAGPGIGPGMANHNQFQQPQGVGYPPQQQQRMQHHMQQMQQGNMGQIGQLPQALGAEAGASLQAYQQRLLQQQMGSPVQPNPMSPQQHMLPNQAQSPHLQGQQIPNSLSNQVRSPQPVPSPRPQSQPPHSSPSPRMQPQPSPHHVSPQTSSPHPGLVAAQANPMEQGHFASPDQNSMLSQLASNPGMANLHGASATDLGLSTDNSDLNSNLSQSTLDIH
# protocol_details: p300 activation, in vitro assay
# test_settings: FIG. 16
quantity_measured: EC50 (nM)
Give just the numeric value; nM need not be written.

Requested read-out: EC50. Entry: CCOc1cccc(OCCN(C)C)c1C(=O)Nc1ccc(Cl)c(C(F)(F)F)c1 790

----------
# protocol_details: Pharmacokinetics and BBB penetration after i.p. and i.v. administration (LC-MS/MS)
# Format: in vivo, BALB/c mice
# test_settings: BALB/c, mouse; IP, 20 mg/kg, brain
quantity_measured: MRT (h)
Give just the numeric value; h need not be written.

Requested read-out: MRT. Entry: CCOc1cccc(OCCN(C)C)c1C(=O)Nc1ccc(Cl)c(C(F)(F)F)c1 1.03

----------
# protocol_details: Oral pharmacokinetics
# Assay type: in vivo
# test_settings: brain/plasma, po; read-out: AUC0-t ratio brain/plasma
quantity_measured: Kp
The reply should be a number, written without any unit.

Requested read-out: Kp. Entry: CCOc1cccc(OCCN(C)C)c1C(=O)Nc1ccc(Cl)c(C(F)(F)F)c1 6.6

----------
# protocol_details: Pharmacokinetics and BBB penetration after i.p. and i.v. administration (LC-MS/MS)
# Assay type: in vivo, BALB/c mice
# test_settings: BALB/c, mouse; IV, 20 mg/kg, brain; read-out: t½ (converted)
quantity_measured: half-life (min)
Give just the numeric value; min need not be written.

Requested read-out: half-life. Entry: CCOc1cccc(OCCN(C)C)c1C(=O)Nc1ccc(Cl)c(C(F)(F)F)c1 37.8

----------
# protocol_details: Pharmacokinetics and BBB penetration after i.p. and i.v. administration (LC-MS/MS)
# Type: in vivo, BALB/c mice
# test_settings: BALB/c, mouse; IP, 20 mg/kg, plasma
quantity_measured: Cmax (ng/mL)
Give just the numeric value; ng/mL need not be written.

Requested read-out: Cmax. Entry: CCOc1cccc(OCCN(C)C)c1C(=O)Nc1ccc(Cl)c(C(F)(F)F)c1 [Compound 1] 843

----------
# target_under_test: Sirtuin 1 (Homo sapiens, UniProt Q96EB6)
# Sequence (Q96EB6 whole entry): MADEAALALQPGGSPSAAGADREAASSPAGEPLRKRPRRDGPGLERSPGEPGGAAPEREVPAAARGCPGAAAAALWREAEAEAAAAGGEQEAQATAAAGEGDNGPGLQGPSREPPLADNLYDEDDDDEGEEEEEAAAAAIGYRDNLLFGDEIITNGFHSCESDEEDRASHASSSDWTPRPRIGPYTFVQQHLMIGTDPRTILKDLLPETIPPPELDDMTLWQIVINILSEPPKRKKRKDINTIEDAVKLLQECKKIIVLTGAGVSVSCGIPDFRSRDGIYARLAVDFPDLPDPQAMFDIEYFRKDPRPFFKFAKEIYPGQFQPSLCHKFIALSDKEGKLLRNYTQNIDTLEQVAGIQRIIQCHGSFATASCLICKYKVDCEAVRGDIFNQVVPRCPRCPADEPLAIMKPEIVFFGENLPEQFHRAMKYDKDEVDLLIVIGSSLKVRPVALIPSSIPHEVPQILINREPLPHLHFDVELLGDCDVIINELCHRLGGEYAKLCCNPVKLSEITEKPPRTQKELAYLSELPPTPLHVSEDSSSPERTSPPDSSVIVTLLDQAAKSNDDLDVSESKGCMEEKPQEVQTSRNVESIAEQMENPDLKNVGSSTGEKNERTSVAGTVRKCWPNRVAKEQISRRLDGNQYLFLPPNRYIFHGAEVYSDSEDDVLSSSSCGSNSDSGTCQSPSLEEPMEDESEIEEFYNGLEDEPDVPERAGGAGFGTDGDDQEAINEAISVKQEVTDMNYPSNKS
# protocol_details: Sirtuin 1 activity assay (fluorescence)
quantity_measured: IC50

Requested read-out: IC50. Entry: O=C(CCCCCCC(=O)Nc1ccccc1)NO [SAHA, reference compound] > 10 µM

----------
quantity_measured: IC50

For the record CCOc1cccc(OCCN(C)C)c1C(=O)Nc1ccc(Cl)c(C(F)(F)F)c1 , what value of IC50 is listed for HDAC5FL (Homo sapiens, UniProt Q9UQL6)? > 200 µM
